# method.summary: in vitro
# condition.details: mouse, % Cell Viability
property.name: viability at 24 h, 25 µM (%)
Give just the numeric value; % need not be written.

Give recorded viability at 24 h, 25 µM. CC1=C(CCC(C)COC2OC(CO)C(O)C(O)C2O)OC2CC3C4CCC5CC(OC6OC(CO)C(O)C(O)C6OC6OC(CO)C(O)C(O)C6O)C(O)CC5(C)C4CCC3(C)C12 (centres unmarked) [Compound 10, Timosaponin D]
111

Identify viability at 24 h, 25 µM associated with the molecule CC1=C(CCC(C)COC2OC(CO)C(O)C(O)C2O)OC2CC3C4CCC5CC(OC6OC(CO)C(O)C(O)C6OC6OC(CO)C(O)C(O)C6O)CCC5(C)C4CCC3(C)C12 (centres unmarked) [Compound 11, Timosaponin BIII]
120

Report viability at 24 h, 25 µM, nothing else, for this molecule: COC1(CCC(C)COC2OC(CO)C(O)C(O)C2O)OC2CC3C4CC=C5CC(O)CC(OC6OC(C)C(O)C(OC7OCC(O)C(O)C7O)C6OC6OC(CO)C(O)C(O)C6O)C5(C)C4CCC3(C)C2C1C (centres unmarked) [Compound 9, Spicatoside B]
99.7

Give me measured viability at 24 h, 25 µM, please, for this molecule: CCC1C(OC(=O)CCC(C)COC2OC(CO)C(O)C(O)C2O)CC2C3CCC4CC(OC5OC(CO)C(O)C(O)C5OC5OC(CO)C(O)C(O)C5O)CCC4(C)C3CCC12C (centres unmarked) [Compound 19, Anemarnoside A]
124

For the molecule CC(CCC1(O)OC2CC3C4CCC5CC(OC6OC(CO)C(OC7OC(C)C(O)C(O)C7O)C(O)C6OC6OC(C)C(O)C(O)C6O)C(O)CC5(C)C4CCC3(C)C2C1C)COC1OC(CO)C(O)C(O)C1O (centres unmarked) [Compound 8, Tuberoside G] , report viability at 24 h, 25 µM.
113

* * *

# method.summary: in vitro
# condition.details: mouse, % Cell Viability
property.name: viability at 24 h, 50 µM

Here's what some known entries look like.
compound: COC1(CCC(C)COC2OC(CO)C(O)C(O)C2O)OC2CC3C4CC=C5CC(O)CC(OC6OC(C)C(O)C(OC7OCC(O)C(O)C7O)C6OC6OC(CO)C(O)C(O)C6O)C5(C)C4CCC3(C)C2C1C (stereo not shown) [Compound 9, Spicatoside B]
viability at 24 h, 50 µM: 94.3%
--
compound: CC1=C(CCC(C)COC2OC(CO)C(O)C(O)C2O)OC2CC3C4CCC5CC(OC6OC(CO)C(O)C(O)C6OC6OC(CO)C(O)C(O)C6O)C(O)CC5(C)C4CCC3(C)C12 (stereo not shown) [Compound 10, Timosaponin D]
viability at 24 h, 50 µM: 110%
--
compound: CCC1C(OC(=O)CCC(C)COC2OC(CO)C(O)C(O)C2O)CC2C3CCC4CC(OC5OC(CO)C(O)C(O)C5OC5OC(CO)C(O)C(O)C5O)CCC4(C)C3CCC12C (stereo not shown) [Compound 19, Anemarnoside A]
viability at 24 h, 50 µM: 126%

Continue with the next compound.
Give reported viability at 24 h, 50 µM value for CC(CCC1(O)OC2CC3C4CCC5CC(OC6OC(CO)C(OC7OC(C)C(O)C(O)C7O)C(O)C6OC6OC(C)C(O)C(O)C6O)C(O)CC5(C)C4CCC3(C)C2C1C)COC1OC(CO)C(O)C(O)C1O (stereo not shown) [Compound 8, Tuberoside G]
99.3%
